tested on: MOLT-4; test: NCI tumour cell line growth inhibition, 48 h
Activity calls are given as the source filed them. Rule as the data show it: active = GI50 up to about 1.1 µM and inactive = higher.
Outcomes you can answer with include only these: active, inactive

A selection of reference data follows.
Problem: Could you please tell me the result logged for C/C=C/C(C#N)(Cc1ccccc1)OP1(=O)OC(c2ccccc2)C(C)N1C (stereo not drawn) in this assay?
Result: inactive

Problem: What outcome does the record of this test show for COc1cc(C(=O)Oc2c(C(C)=O)sc3c2c(=O)n(-c2ccccc2)c(=S)n3-c2ccccc2)cc(OC)c1OC ?
Result: inactive

Now let's try a different one.
Problem: Dear all, I need the recorded test outcome for Cc1cnoc1NS(=O)(=O)c1ccc(Nc2nnc(/C=C/c3c(O)ccc4ccccc34)c(=O)n2N)cc1 , thank you.
Result: active

---

test system: UACC-257; assay: NCI tumour cell line growth inhibition, 48 h
Activity calls are given as the source filed them. Rule as the data show it: active = GI50 up to about 1.1 µM and inactive = higher.
Metric name: GI50

Looking up CN(C)/C=N/S(=O)(=O)c1nn2c(C=O)c(-c3ccc(-c4ccccc4)cc3)nc2s1 , I found its GI50 recorded as 2.97 µM (inactive)

Could you now consider this next compound?
Per the record, O=c1ssc(Cl)c1Nc1c(Cl)ssc1=O has GI50 of 16.5 µM (inactive)

---

The entries below are paired with their reported GI50.
test system: SF-268; test: NCI tumour cell line growth inhibition, 48 h
Active and inactive are the calls of the source. No stated cut-off is given here; in the data, active = GI50 up to about 1.1 µM and inactive = higher.

Field: example entries. Status: answers known.
Lab note: C=CC1ON(C)CCc2cc(OC)c(OC)cc21 (configuration not stated) gave GI50 of 39.6 µM (inactive)

Recorded GI50 (compound C#Cc1ccccc1N1C(=O)C=CC1=O ): > 100 µM (inactive)

The recorded GI50 for entry CC1=CC[C@@H](C(C)(C)O)C[C@@H]1O equals > 5000 µM (inactive)

# compound [O-]c1c2c(nn1-c1ccccc1)c1ccccc1c[n+]2Cc1ccccc1 ; its GI50 = 47.1 µM (inactive)

So, Oc1c(C(Nc2cccc3cccnc23)c2ccccc2)ccc2cccnc12 (configuration not stated) ? Its GI50 was 4.21 µM (inactive)

Others:
Looking up O=C1C=C(O)C(=Cc2c(O)cc(O)cc2O)C(O)=C1 , I found its GI50 recorded as > 100 µM (inactive)

---

tested on: Malme-3M; experiment: NCI tumour cell line growth inhibition, 48 h
Calls of active or inactive are those of the source. No stated cut-off is given here; in the data, active = GI50 up to about 1.1 µM and inactive = higher.
Recorded measurements of GI50, one per entry

Use these answered entries as a reference point.
Hey, Malme-3M data for CSc1cnn(CCC#N)c(=O)n1 : GI50 came out at > 100 µM (inactive)

Measured on Malme-3M, OCCCSCCO has a documented GI50 of > 100 µM (inactive)

# ---- query compound ----
The reported Malme-3M GI50 of Cc1ccc2c(c1)c(=O)c1c(NCCN(C)C)ccc3nnn2c31 is 3.82 µM (inactive)

---

system: DLD-1; experiment: NCI tumour cell line growth inhibition, 48 h
Calls of active or inactive are those of the source. No stated cut-off is given here; in the data, active = GI50 up to about 1.1 µM and inactive = higher.
Just give me one of these, please: y = active, n = inactive

Problem: Give the logged outcome of this assay for the following molecule: [O-]c1c2c(nn1-c1ccccc1)c1ccccc1c[n+]2Cc1ccccc1
Result: n

Problem: Returns: the outcome recorded for CSC(C1c2ccccc2N(c2ccc(C)cc2)c2[nH]c(=O)n(C)c(=O)c21)S(=O)(=O)c1ccc(C)cc1 (centres undefined) in this assay.
Result: n

Problem: What call does the record list for O=C(CCC(=O)Nc1ccc(Cl)cc1)CC(=O)c1ccc2ccccc2c1 ?
Result: n

Next up:
Problem: Name the outcome recorded for Cc1ccc(C2=NO[C@@H]3C(=O)N(c4ccc(Cc5ccc(N6C(=O)[C@H]7C(c8ccc(C)cc8)=NO[C@H]7C6=O)cc5)cc4)C(=O)[C@H]23)cc1 in the assay.
Result: n
